# target_desc: T1, human PVRIG-his (AcroBiosystems, Cat NO. PVG-H52H4) (human, UniProt Q6DKI7 41-171, limits assumed)
# T1 construct: also called human PVRIG protein
# T1 sequence (looked up): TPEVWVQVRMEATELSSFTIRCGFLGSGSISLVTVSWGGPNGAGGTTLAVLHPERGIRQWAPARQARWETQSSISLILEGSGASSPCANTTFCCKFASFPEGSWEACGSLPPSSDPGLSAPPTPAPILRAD
# test: competition ELISA, PVRIG-His coated, competitor human PVRL2-mFc
# Description: The ELISA plate was pre-coated with 100 μL/well of 0.5 μg/mL human PVRIG-his protein (AcroBiosystems, Cat NO. PVG-H52H4). The tested anti-PVRIG antibodies were diluted from the highest concentration of 16 nM (two-fold concentration). […] After adding a termination solution to terminate the reaction, the absorbance value was read by a microplate reader (MD i3×). […] The IC50 value was calculated by using a Four Parameter Logistic Fit (GraphPadPrism9). […]
Catalogue of % relative activity (AUC) parental antibody/test antibody readings, one per entry.

Would you please look over these solved cases?
PVRIG-A50-H1 (Fc fusion, humanized variant of PVRIG-A50; also called A50.VH1; not shown: constant part not restated for the humanized forms; parents are VHH-hinge-CH2-CH3 of human IgG1; detected by anti-human) EVQLVESGGGLVQPGGSLRLSCAASGFTFSYYDMSWVRQAPGKGLEWVSTINSNGGRTSYVDSVKGRFTISRDNSKNTLYLQMNSLRAEDTAVYYCVEGDPHNFGLENLSLRDFGSWGQGTMVTVSS : 82.6%
PVRIG-A50-H1a (Fc fusion, humanized variant of PVRIG-A50; also called A50.VH1a; not shown: constant part not restated for the humanized forms; parents are VHH-hinge-CH2-CH3 of human IgG1; detected by anti-human) EVQLVESGGGLVQPGGSLRLSCAASGFTFSYYDMSWVRQAPGKGLEWVSTINSDGGRTSYVDSVKGRFTISRDNSKNTLYLQMNSLRAEDTAVYYCVEGDPHNFGLENLSLRDFGSWGQGTMVTVSS : 82.5%
PVRIG-A105-H3 (Fc fusion, humanized variant of PVRIG-A105; also called A105.VH3; not shown: constant part not restated for the humanized forms; parents are VHH-hinge-CH2-CH3 of human IgG1; detected by anti-human) EVQLVESGGGLVQPGGSLRLSCAASGRTFDRHTMTWFRQAPGKEREFVATASRIPGDTYYVDSVKGRFTISRDNAKNSVYLQMNSLRAEDTAVYYCAATSAYCSEVDCYEKGSWYDNWGQGTMVTVSS : 101%
PVRIG-A105-H4 (Fc fusion, humanized variant of PVRIG-A105; also called A105.VH4; not shown: constant part not restated for the humanized forms; parents are VHH-hinge-CH2-CH3 of human IgG1; detected by anti-human) EVQLVESGGGLVQPGGSLRLSCAASGRTFDRHTMTWFRQAPGKEREFVATASRIPGDTYYSHSVKGRFTISRDNAKNSLYLQMNSLRAEDTAVYYCAATSAYCSEVDCYEKGSWYDNWGQGTMVTVSS : 109%
PVRIG-A118-H3 (Fc fusion, humanized variant of PVRIG-A118; also called A118.VH3; not shown: constant part not restated for the humanized forms; parents are VHH-hinge-CH2-CH3 of human IgG1; detected by anti-human) EVQLVESGGGLVQPGGSLRLSCAASETYFDLYVMGWYRQAPGKDRELVATITYTGSIKYVDSVKGRFTISRGDAKNSLYLQMNSLRAEDTAVYYCNADPSGLGRKVYWGQGTMVTVSS : 106%

Task: Which measured % relative activity (AUC) parental antibody/test antibody value corresponds to PVRIG-A50-H1d (Fc fusion, humanized variant of PVRIG-A50; also called A50.VH1d; not shown: constant part not restated for the humanized forms; parents are VHH-hinge-CH2-CH3 of human IgG1; detected by anti-human) EVQLVESGGGLVQPGGSLRLSCAASGFTFSYYDMSWVRQAPGKGLEWVSTINSNGGRTSYVDSVKGRFTISRDNSKNTLYLQMNSLRAEDTAVYYCVEGDPHNFGLESLSLRDFGSWGQGTMVTVSS ?
Result: 83.2%

Task: Fill blank: measured % relative activity (AUC) parental antibody/test antibody of the binder PVRIG-A118-H5 (Fc fusion, humanized variant of PVRIG-A118; also called A118.VH5; not shown: constant part not restated for the humanized forms; parents are VHH-hinge-CH2-CH3 of human IgG1; detected by anti-human) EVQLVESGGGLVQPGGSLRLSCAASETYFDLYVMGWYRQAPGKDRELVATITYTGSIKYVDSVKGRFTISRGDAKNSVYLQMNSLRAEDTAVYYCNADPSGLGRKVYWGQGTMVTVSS is ____.
Result: 114%

Task: Using the record for PVRIG-A118-H7 (Fc fusion, humanized variant of PVRIG-A118; also called A118.VH7; not shown: constant part not restated for the humanized forms; parents are VHH-hinge-CH2-CH3 of human IgG1; detected by anti-human) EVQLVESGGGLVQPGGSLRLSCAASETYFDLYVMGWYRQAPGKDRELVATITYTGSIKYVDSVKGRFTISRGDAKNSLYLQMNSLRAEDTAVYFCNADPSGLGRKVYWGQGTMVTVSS , report its % relative activity (AUC) parental antibody/test antibody.
Result: 114%
